Cited source: PubChem BioAssay (EPA / NIEHS)

# Read-out: solute carrier (SLCO1B1), SLCO1B1 (gene 10599)
# assay-summary: LTEA_HepaRG_SLCO1B1: Life Technologies and Expression Analysis (LTEA) Assay for solute carrier (SLCO1B1) using HepaRG (AID 2283530)
# condition: mRNA level, 48 h; actives raise or lower the signal
The source made the active and inactive calls. The calls were made as follows: active = hit-call score of the fitted dose curve at least 0.9, where 1 is the maximum; inactive = score below 0.9.
property-measured: AC50

{"molecule": "Cc1occc(=O)c1O", "observed-result": "inactive"}
{"molecule": "CC(=O)O", "observed-result": "inactive"}
{"molecule": "CC(N)=O", "observed-result": "inactive"}
{"molecule": "O=C(Oc1ccccc1)c1cccc(C(=O)Oc2ccccc2)c1", "observed-result": "inactive"}
{"molecule": "CCCCC(CC)COP(=O)(OCC(CC)CCCC)OCC(CC)CCCC (stereo not given)", "observed-result": "inactive"}

Which measured AC50 value corresponds to CCCCC(CC)COC(=O)CCCCCCCC(=O)OCC(CC)CCCC (stereo not given) ?
inactive

Can you check c1ccc2occc2c1 next?
inactive

###

# Read-out: TIMP metallopeptidase inhibitor 2 (TIMP2), TIMP2 (gene 7077)
# assay-summary: BSK_KF3CT_TIMP2: BioMAP Diversity Plus: KF3CT Assay for TIMP metallopeptidase inhibitor 2 (TIMP2) Biomarker Activity (AID 2283071)
# condition: primary human keratinocytes with fibroblasts; actives raise or lower the signal
Calls of active or inactive are those of the source. Rule for the calls: active = hit-call score of the fitted dose curve at least 0.9, where 1 is the maximum; inactive = score below 0.9.
property-measured: AC50

{"compound": "CC1=C(C)S(=O)(=O)CCS1(=O)=O", "AC50": "inactive"}
{"compound": "O=C1c2c(O)cccc2Cc2cccc(O)c21", "AC50": "20 µM (active)"}
{"compound": "CC(C)COC(=O)CCCCC(=O)OCC(C)C", "AC50": "inactive"}
{"compound": "Cc1cn([C@H]2C=C[C@@H](CO)O2)c(=O)[nH]c1=O", "AC50": "inactive"}
{"compound": "CCCC(=O)O", "AC50": "inactive"}
{"compound": "CC(C)(C)c1ccccc1", "AC50": "inactive"}

Which measured AC50 value corresponds to CC(=O)OC1CC(C)OC(C)O1 (stereo unspecified) ?
inactive

Okay, and CC(C)c1cccc(C(C)C)c1NC(=O)NS(=O)(=O)c1cc(C(C)(C)O)co1 ?
inactive

Another compound: O=C(O)c1cccnc1
inactive

Would you mind doing Nc1nc(=S)c2[nH]cnc2[nH]1 as well?
inactive

Queued: CN(C)CCCN(C)CCCN(C)C
inactive

Another compound to look at: C#CC(O)C(CC)CCCC (stereo unspecified)
inactive

Repeat for the following compound: CCCCOC(=O)CCCCC(=O)OCCCC
inactive

Record: O=[Si]=O
inactive

Now consider CC(N)=O and answer again.
inactive

Same read-out for O=NO ?
inactive

###

# Read-out: Thrombomodulin, THBD (gene 7056)
# assay-summary: BSK_3C_Thrombomodulin: BioMAP Diversity Plus: 3C Assay for Thrombomodulin Biomarker Activity (AID 2283029)
# condition: primary human endothelial cells (HUVEC); actives raise or lower the signal
Activity calls are given as the source filed them. How the source made its calls: active means hit-call score of the fitted dose curve at least 0.9, where 1 is the maximum; inactive means score below 0.9.
property-measured: outcome

{"molecule": "Cc1occc(=O)c1O", "property-measured": "outcome", "observed-result": "inactive"}
{"molecule": "CC(=O)OC1CC(C)OC(C)O1 (stereo unspecified)", "property-measured": "outcome", "observed-result": "inactive"}
{"molecule": "NC=O", "property-measured": "outcome", "observed-result": "inactive"}
{"molecule": "COC(=O)CCCC(=O)OC", "property-measured": "outcome", "observed-result": "inactive"}

What does the record list as outcome for Nc1nc(Cl)nc2c1ncn2[C@H]1C[C@H](O)[C@@H](CO)O1 ?
inactive

Then this molecule: C#CC(O)C(CC)CCCC (stereo unspecified)
inactive
